- testedSystem: A1 adenosine receptor (Mesocricetus auratus)
- Construct: endogenous in cells; host or cells: DDT1 (DDT1 MF-2) hamster vas deferens smooth muscle cells
- Sequence (A0A1U8BVR4 1-326): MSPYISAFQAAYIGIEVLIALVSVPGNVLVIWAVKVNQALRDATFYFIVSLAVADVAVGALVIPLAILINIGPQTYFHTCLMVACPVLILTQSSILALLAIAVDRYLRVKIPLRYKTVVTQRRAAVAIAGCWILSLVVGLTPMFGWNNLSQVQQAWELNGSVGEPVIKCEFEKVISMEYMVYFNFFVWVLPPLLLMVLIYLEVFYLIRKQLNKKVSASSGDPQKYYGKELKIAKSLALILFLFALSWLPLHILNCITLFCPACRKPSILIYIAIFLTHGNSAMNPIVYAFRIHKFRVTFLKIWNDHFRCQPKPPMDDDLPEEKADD
- testDetails: cAMP assay (SPA) in DDT1 cells, forskolin-induced cAMP
- Assay type: cell-based, hamster
- testContext: 10 min, normalized to full agonist CPA; 5 μM forskolin, 50 μM rolipram
We use 30% as the dividing line for Emax: on or above the line is class 1, below is class 0.

>>> classification("COC(=O)CNC(=O)OCC1OC(n2cnc3c(N[C@@H]4CCOC4)ncnc32)C(O)C1O (stereo partly shown) [Compound 43]")
"class 0"
>>> classification("CCOC(=O)CCNC(=O)OCC1OC(n2cnc3c(N[C@@H]4CCOC4)ncnc32)C(O)C1O (stereo partly shown) [Compound 42]")
"class 0"
>>> classification("OC1C(CNC(=S)OC2CCCC2)OC(n2cnc3c(N[C@@H]4CCOC4)ncnc32)C1O (stereo partly shown) [Compound 72]")
"class 1"
>>> classification("O=c1occn1CC1OC(n2cnc3c(N[C@@H]4CCOC4)ncnc32)C(O)C1O (stereo partly shown) [Compound 80]")
"class 1"
>>> classification("CCOC(=O)C1C2CCC(C2)C1NC(=O)OCC1OC(n2cnc3c(N[C@@H]4CCOC4)ncnc32)C(O)C1O (stereo partly shown) [Compound 36]")
"class 0"
>>> classification("O=C(NC1CC1c1ccccc1)OC[C@H]1O[C@@H](n2cnc3c(N[C@@H]4CCOC4)ncnc32)[C@H](O)[C@@H]1O (stereo partly shown) [Compound 40]")
"class 0"
>>> classification("O=C(NC1CCCC1O)OCC1OC(n2cnc3c(N[C@@H]4CCOC4)ncnc32)C(O)C1O (stereo partly shown) [Compound 62]")
"class 0"
